Tested on: Salmonella enteritidis
Experiment summary: Antimicrobial activity against Salmonella enteritidis ATCC 13076 by serial dilution technique
Assay type: functional, Salmonella enterica subsp. enterica serovar Enteritidis
Run parameters: Salmonella enterica

# Compound, MIC, µM
data = [
    ("C[C@@H]1C(=O)O[C@H]2[C@H]1[C@@H](O)C[C@]1(C)[C@@H]2[C@@H](C=O)CC[C@H]1O", 0.7),
    ("C[C@@H]1C(=O)O[C@@H]2C3[C@H](C=O)CCC[C@]3(C)C[C@H](O)[C@@H]12 (stereo partly drawn)", 0.3),
    ("C=C[C@]1(C)C[C@H](O)[C@@H]2[C@H](OC(=O)[C@H]2C)[C@H]1C(=C)CO", 2.3),
]
